Assignment: determine reported melting point for the given compounds.

melting point reading for `COc1cc(C)cc(OC)c1N(C)C(C)=O` : 160 to 161 °C

melting point reading for `CS(=O)(=O)CC(=O)N[C@H]1CC[C@H](CCN2CCN(c3nccc4c3CCO4)CC2)CC1` : 260 °C

melting point reading for `Nc1cc(N2C(=O)CN(CCCF)C2=O)c(F)cc1Cl` : 89 to 91 °C

melting point reading for CC=Cc1cnc(C2=NC(C)(C(C)C)C(=O)N2)c(C(=O)O)c1 (centres undefined) : 175 to 176 °C

###

Assignment: determine reported melting point for the given compounds.

melting point reading for `Cc1ccc(C=CC(=O)N(C)O)cc1` : 142 to 144 °C

melting point reading for `CN1C(=O)CC[C@]2(C)c3ccc(-c4ccc(O)c(C=O)c4)cc3CC[C@@H]12` : 184 to 187 °C

melting point reading for `CCCCCCCCCCNC(=O)c1ccc(C(=O)NCCCCCCCCCC)c(N(CC(=O)OC)CC(=O)OC)c1` : 76 to 78 °C

melting point reading for `CC(C)(C)OC(=O)N1CCN(c2ccc(Oc3cc(Cl)ccc3N)cc2)CC1` : 95 to 96 °C

melting point reading for `CCc1nn(CCO)c(CO)c1Sc1cc(Cl)cc(Cl)c1` : 106 to 108 °C

melting point reading for `O=C(NCCN1CCCCC1)N1CCN(c2ccccc2)CC1` : 64 to 67 °C
